tested on: EKVX NSCLC; experiment: NCI tumour cell line growth inhibition, 48 h
reported metric: TGI

A selection of reference data follows.
Cn1c(=O)c2[nH]c(/N=N/N3CCN(CCO)CC3)nc2n(C)c1=O | > 100 µM
O=C(c1ccc(Cl)cc1Cl)N(C(=O)N1CCC(c2ccccc2)CC1)c1ccccc1 | > 100 µM
CCOC(=O)c1nc2ccc(C(F)(F)F)cc2nc1NCc1ccc(Cl)c(Cl)c1 | > 100 µM

Please look up its TGI: "C[C@]12CC[C@H]3[C@@H](CCC4=CC(=O)CC[C@@H]43)[C@@H]1CC[C@@H]2OC(=O)N(CCCl)N=O"
36.6 µM

Look up TGI: "COc1cc2c(cc1OC)-c1[nH]c3ccc(C#N)cc3c1CC(=O)N2"
> 100 µM

These measurements were taken from PubChem BioAssay (NCI).
